- System: C2C12 (NDUFB8-AcGFP / COX8A-DsRed-Monomer FRET reporter)
- run_description: cFRET/donor change relative to DMSO, normalised to beta-lapachone positive control (supercomplex I-IV assembly) (fraction of beta-lapachone effect); higher = more respiratory supercomplex assembly
- condition_info: 40 µM; 24 h
Counter-ions that a name gives are not always drawn. The full ranking holds about 1,000 compounds; the median of “cFRET/donor change relative to DMSO, normalised to beta-lapachone positive control (supercomplex I-IV assembly)” is about 0.18, and the lowest 2% start at about -1. The entries come from a sample that favours the lowest values as a whole.
observed_property: cFRET/donor change

CCCCCCCCCCCCCCC[C@H](O)[C@H](N)CO (racemic) [DL-erythro-Dihydrosphingosine]: 0.48
COc1cc(NS(C)(=O)=O)ccc1Nc1c2ccccc2nc2ccccc12 [Amsacrine hydrochloride]: 0.257
CN1C2CCCC1CC(NC(=O)c1nn(C)c3ccccc13)C2 (stereo not given) [Granisetron hydrochloride]: 0.333
O=C(c1ccc(OCCCc2c[nH]cn2)cc1)C1CC1 [Ciproxifan hydrochloride]: 0.224
COC1=C(OC)C(=O)c2ccccc2C1=O [2,3-Dimethoxy-1,4-naphthoquinone]: 0.433
NS(=O)(=O)c1ccc(-n2nc(C(F)(F)F)cc2-c2ccc(Cl)cc2)cc1: 0.219
CC1(C2CCCC2)Cc2cc(OCC(=O)O)c(Cl)c(Cl)c2C1=O (stereo not given): 0.0296
O=Nc1ccc2oc(=O)ccc2c1 [6-Nitroso-1,2-benzopyrone]: -1.07
Cc1cc(Nc2ncc3cc(-c4c(Cl)cccc4Cl)c(=O)n(C)c3n2)ccc1F: -0.253
CN(C)C(=O)[C@H](O)[C@H](Cc1ccccc1)NC(=O)c1cc2cc(Cl)ccc2[nH]1: 0.332
COc1ccc(/C=C/c2nc(NCCCN(C)C)c3ccccc3n2)cc1: 0.418
COC(=O)C1=C(C)NC(C)=C(C(=O)OC2CCCN(Cc3ccccc3)C2)C1c1cccc([N+](=O)[O-])c1 (stereo not given) [Benidipine hydrochloride]: 0.367
OC(CCN1CCCCC1)(c1ccccc1)C1CC2C=CC1C2 (stereo not given) [Biperiden hydrochloride]: 0.472
O=CN(O)CCCP(=O)(O)O [Fosmidomycin sodium salt hydrate]: 0.0766
O=P(O)(O)C(O)(Cn1ccnc1)P(=O)(O)O [Zoledronic acid monohydrate]: 0.239
N#CC(C#N)=C(N)/C(C#N)=C/c1ccc(O)cc1 [Tyrphostin AG 112]: 0.38
Nc1ncnc2c1ncn2[C@@H]1O[C@H](COP(=O)(O)OP(=O)(O)OP(=O)(O)OP(=O)(O)OC[C@@H]2O[C@H](n3cnc4c(N)ncnc43)C(O)[C@@H]2O)[C@H](O)C1O (stereo not given in full) [P1,P4-Di(adenosine-5')tetraphosphate triammonium]: 0.0746
COc1ccc(CCn2nnnc2C2(c3ccc(C)cc3)CC2)cc1 [Mephetyl tetrazole]: 0.388
CN1CCC[C@@H]1Cc1c[nH]c2ccc(CCS(=O)(=O)c3ccccc3)cc12 [Eletriptan hydrobromide]: 0.314
CC(C)(C)NC(=O)[C@@H]1CN(Cc2cccnc2)CCN1C[C@@H](O)C[C@@H](Cc1ccccc1)C(=O)N[C@H]1c2ccccc2C[C@H]1O [Indinavir sulfate salt hydrate]: 0.0944
Nc1nc2c(c(=O)[nH]1)C[C@@H](CCc1ccc(C(=O)N[C@@H](CCC(=O)O)C(=O)O)cc1)CN2 [Lometrexol hydrate]: -0.284
CCN(CC)CCCCNc1ncc2cc(-c3c(Cl)cccc3Cl)c(NC(=O)NC(C)(C)C)nc2n1: 0.403
CCOC(=O)[C@H](CCc1ccccc1)N[C@@H](C)C(=O)N1[C@H](C(=O)O)C[C@H]2CCCC[C@@H]21 [Trandolapril]: -0.23
CCNC(=O)[C@H]1O[C@@H](n2cnc3c(N)nc(NCCc4ccc(CCC(=O)O)cc4)nc32)[C@H](O)[C@@H]1O: -0.069
CC(C)(C)c1cc(/C=C(\C#N)C(N)=S)cc(C(C)(C)C)c1O [Tyrphostin AG 879]: -2.01
